Each recorded value in this set is attributed to ChEMBL document CHEMBL3616471.

Tested on: PC-3
Assay: Cytotoxicity against human PC3 cells after 72 hrs by MTT assay
Format: functional, cell-based
Conditions: PC-3, 72 h
pIC50: −log10 of the molar value.
Record form. Attribute: pIC50. Fill in for each entry.

C=C(C)[C@@H]1CC[C@]2(COC(=O)c3ccccc3C(F)(F)F)CC[C@]3(C)[C@H](CC[C@@H]4[C@@]5(C)CC[C@H](O)C(C)(C)[C@@H]5CC[C@]43C)[C@@H]12 | < 4.00
C=C(C)[C@@H]1CC[C@]2(COC(=O)c3ccccc3Cl)CC[C@]3(C)[C@H](CC[C@@H]4[C@@]5(C)CC[C@H](OC(=O)c6ccccc6Cl)C(C)(C)[C@@H]5CC[C@]43C)[C@@H]12 | < 4.00

Requested read-out: pIC50. Entry: C=C(C)[C@@H]1CC[C@]2(COC(=O)/C=C/C(=O)N3CCCCC3)CC[C@]3(C)[C@H](CC[C@@H]4[C@@]5(C)CC[C@H](O)C(C)(C)[C@@H]5CC[C@]43C)[C@@H]12
5.02
